# Measured target: D(1B) dopamine receptor (Homo sapiens)
# Sequence (P21918 whole entry): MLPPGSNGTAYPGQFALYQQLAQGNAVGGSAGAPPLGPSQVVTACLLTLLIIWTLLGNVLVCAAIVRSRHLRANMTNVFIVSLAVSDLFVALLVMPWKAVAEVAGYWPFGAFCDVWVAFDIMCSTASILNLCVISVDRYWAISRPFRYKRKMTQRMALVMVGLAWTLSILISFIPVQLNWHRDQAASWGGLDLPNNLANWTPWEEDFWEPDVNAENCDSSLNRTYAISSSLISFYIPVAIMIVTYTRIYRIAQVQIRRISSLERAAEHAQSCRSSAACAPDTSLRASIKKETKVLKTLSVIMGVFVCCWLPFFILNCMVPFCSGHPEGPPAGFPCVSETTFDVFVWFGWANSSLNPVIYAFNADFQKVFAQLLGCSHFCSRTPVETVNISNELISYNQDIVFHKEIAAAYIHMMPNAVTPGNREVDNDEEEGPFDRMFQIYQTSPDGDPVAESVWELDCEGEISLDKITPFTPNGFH
pKi: −log10 of the molar value.
Observed property: pKi

COc1cc2c(cc1O)[C@@H]1Cc3ccc(O)c(OC)c3CN1CC2 [STEPHOLIDINE] :: 8.36
COc1ccc2c(c1)CCN(C)Cc1ccccc1CC2 :: 5.82

###

# Measured target: D(1A) dopamine receptor (Homo sapiens, UniProt P21728)
# Sequence (P21728 whole entry): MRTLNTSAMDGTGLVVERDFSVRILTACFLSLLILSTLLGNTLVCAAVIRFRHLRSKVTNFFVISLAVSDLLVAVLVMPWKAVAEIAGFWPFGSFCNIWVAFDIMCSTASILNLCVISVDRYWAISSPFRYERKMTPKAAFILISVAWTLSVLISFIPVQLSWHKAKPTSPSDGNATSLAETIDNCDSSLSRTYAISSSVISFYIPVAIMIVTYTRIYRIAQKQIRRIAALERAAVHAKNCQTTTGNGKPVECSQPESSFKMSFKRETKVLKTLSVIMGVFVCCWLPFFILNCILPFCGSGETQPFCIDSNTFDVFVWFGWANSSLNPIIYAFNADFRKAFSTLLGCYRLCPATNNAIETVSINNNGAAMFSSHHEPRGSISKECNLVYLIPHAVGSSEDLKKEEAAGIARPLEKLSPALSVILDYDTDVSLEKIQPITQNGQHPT
# Run description: Antagonist activity at human dopamine D1 receptor expressed in HEK293 cells assessed as SKF-38393-induced intracellular calcium by fluorescence microplate reader
# Assay type: functional, cell-based
Calls of active or inactive are those of the source. No cut-off for these calls is given here.
Observed property: Activity

COc1ccc2c(c1)CCN(C)Cc1ccccc1CC2 :: Active
Oc1ccc2c(c1)CCN1CCc3ccccc3C21 (stereo not drawn) :: Active
CN1CCc2ccccc2Cc2ccc(O)cc2CC1 :: Active

###

# Measured target: D(1A) dopamine receptor (Homo sapiens)
# Run description: Displacement of [3H]SCH23390 from human dopamine D1 receptor expressed in CHO cells by scintillation counting
pKi: −log10 of the molar value.
Label scheme for pKi: lower than 6 is No, 6 and above is Yes.

COc1ccc2c(c1)CCN(C)Cc1ccccc1CC2 :: No
COc1ccc2c(c1)CCN1Cc3ccccc3CC21 (stereo unspecified) :: Yes
COc1ccc2c(c1)CCN1CCc3ccccc3C21 (stereo unspecified) :: No
Oc1ccc2c(c1)CCN1Cc3ccccc3CC21 (stereo unspecified) :: Yes
Oc1ccc2c(c1)CCN1CCc3ccccc3C21 (stereo unspecified) :: No
COc1ccc2c(c1)CCN(C)C2Cc1ccccc1C (stereo unspecified) :: No
CCc1cc(OC)ccc1C1Cc2ccccc2CN1C (stereo unspecified) :: No
CN1CCCc2cc(O)ccc2Cc2ccccc2C1 :: No
COc1cc2c(cc1O)[C@@H]1Cc3ccc(O)c(OC)c3CN1CC2 :: Yes
Cc1ccccc1CC1c2ccc(O)cc2CCN1C (stereo unspecified) :: No

###

// values below are Ki; system is D(2) dopamine receptor (Homo sapiens, UniProt P14416)
Sequence (P14416 whole entry): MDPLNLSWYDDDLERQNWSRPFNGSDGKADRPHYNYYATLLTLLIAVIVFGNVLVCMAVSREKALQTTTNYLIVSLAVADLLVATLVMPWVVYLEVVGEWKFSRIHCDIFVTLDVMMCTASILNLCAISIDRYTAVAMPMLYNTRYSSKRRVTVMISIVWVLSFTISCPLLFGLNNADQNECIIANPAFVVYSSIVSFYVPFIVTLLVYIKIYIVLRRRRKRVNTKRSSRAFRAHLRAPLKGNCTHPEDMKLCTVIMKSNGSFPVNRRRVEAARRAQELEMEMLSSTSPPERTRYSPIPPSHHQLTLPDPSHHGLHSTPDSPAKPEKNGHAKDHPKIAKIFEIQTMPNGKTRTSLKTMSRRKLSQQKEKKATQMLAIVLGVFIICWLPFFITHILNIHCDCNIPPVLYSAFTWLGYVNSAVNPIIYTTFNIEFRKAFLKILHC
Observed property: Ki (nM)

Oc1ccc2c(c1)CCN1Cc3ccccc3CC21 (centres undefined) :: 486
Cc1ccccc1CC1c2ccc(O)cc2CCN1C (centres undefined) :: 2720

###

Target protein (sequence): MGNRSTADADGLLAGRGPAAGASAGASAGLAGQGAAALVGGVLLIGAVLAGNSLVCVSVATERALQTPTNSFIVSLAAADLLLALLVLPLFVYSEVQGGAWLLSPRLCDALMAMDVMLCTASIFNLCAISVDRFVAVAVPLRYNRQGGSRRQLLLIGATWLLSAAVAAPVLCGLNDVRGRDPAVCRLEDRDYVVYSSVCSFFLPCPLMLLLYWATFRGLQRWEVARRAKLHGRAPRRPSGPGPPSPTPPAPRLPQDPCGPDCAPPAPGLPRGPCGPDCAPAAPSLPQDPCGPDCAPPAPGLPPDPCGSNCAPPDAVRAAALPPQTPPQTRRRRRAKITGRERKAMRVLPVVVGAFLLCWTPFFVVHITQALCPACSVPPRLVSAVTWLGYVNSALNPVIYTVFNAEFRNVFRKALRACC
Observed property: Ki (µM)

COc1ccc2c(c1)CCN(C)CCc1ccccc1C2 :: 0.0434
Oc1ccc2c(c1)CCN1Cc3ccccc3CC21 (centres undefined) :: 5.09
COc1ccc2c(c1)CCN(C)C2Cc1ccccc1C (centres undefined) :: 6.64
